Measured values drawn from PubChem BioAssay (Tox21) for this set.

# Measured On: Cytochrome P450 1A2 (Homo sapiens)
# Protocol Description: Cytochrome P450 Family 1 Subfamily A Member 2 (CYP1A2) small molecule antagonists: luciferase reporter qHTS assay (AID 1671199); note: nearly all actives have a fitted effect of over 50% in size
# Condition Description: P450-Glo CYP1A2 enzyme, luciferin luminescence, 1 h; series mostly up to 115 µM
Records with an inconclusive call do not appear. The source made the active and inactive calls. Calls come from the whole dose curve; as a rule, active = well fitted inhibition curve with a large enough effect in the repeat runs; inconclusive = weak or mixed curves; inactive = no such curve, though single readings can be large or run the other way.
Please reply with one of these outcomes: active, inactive

Q: Name the outcome recorded for CNC(=O)O/N=C/C(C)(C)SC in the assay.
Ans: inactive

Q: In this assay, the call recorded for Cc1cccc(C)c1N was what?
Ans: inactive

Q: Please share the test call associated with O=C(O)c1cc(Oc2ccc(C(F)(F)F)cc2Cl)ccc1[N+](=O)[O-] .
Ans: inactive

Q: // param item: N#CN=C(N)N ; yields the recorded call
Ans: inactive

Q: Call for entry [N-]=[N+]=CC(=O)OC[C@H](N)C(=O)O :
Ans: inactive

Q: Recorded call for Cl/C=C/Cl ?
Ans: inactive

Q: How did this test come out for COC(C)(C)CCCC(C)C/C=C/C(C)=C/C(=O)OC(C)C (stereo not given) ?
Ans: inactive

Q: Assay result, entry c1ccc2c(c1)CCCC2 — outcome?
Ans: inactive

Q: In this assay, the call recorded for CNC(=O)O/N=C/C(C)(C)S(C)=O (stereo not given) was what?
Ans: inactive

Q: Outcome logged for C=C(C)C(=O)OCC(CC)CCCC (stereo not given) in this assay:
Ans: inactive

Q: Call for entry O=C(O)C(Br)Br :
Ans: inactive

Q: What outcome does the record of this test show for C/C=C/c1ccc2c(c1)OCO2 ?
Ans: active

Q: Query: recorded result category for Nc1ccc([As](=O)(O)O)cc1 in this test
Ans: inactive

Q: Name the outcome recorded for CC[N+](=O)[O-] in the assay.
Ans: inactive

Q: Recorded test call requested for Nc1nc(N)nc(NC2CC2)n1
Ans: inactive

Q: Could you kindly confirm the outcome this assay logged for Cc1cc(Cl)ccc1OC(C)C(=O)O (stereo not given) ?
Ans: inactive

Q: Just curious, what result did C[C@H]1C(=O)O[C@@H]2CCN3CC=C(COC(=O)[C@](C)(O)[C@]1(C)O)[C@H]23 get here?
Ans: inactive

Q: What did the test return for C=CC(=O)OCCCCCC(C)C ?
Ans: inactive

Q: Identify the outcome logged in this assay for the compound shown: ClC(Cl)c1ccccc1
Ans: inactive

Q: What outcome does the record of this test show for CNC(=O)O/N=C(\SC)C(=O)N(C)C ?
Ans: inactive

Q: Outcome logged for Cc1cccc(C)c1NC(=O)CN1CCCC1=O in this assay:
Ans: inactive

Q: // return assay outcome for O=[N+]([O-])c1cc([As](=O)(O)O)ccc1O
Ans: inactive

Q: Dear colleague, could you share the recorded outcome for CC(=O)C1CCOC1=O (stereo not given) when you have a moment?
Ans: inactive

Q: What did this assay record as the result for CCSC(=O)N1CCCCCC1 ?
Ans: inactive

Q: What outcome does the record of this test show for CN(C)C(=O)C(c1ccccc1)c1ccccc1 ?
Ans: inactive

Q: What call does the record list for CNC(=O)O/N=C/C(C)(C)S(C)(=O)=O ?
Ans: inactive

Q: Outcome? OC[C@@H](O)[C@H]1O[C@@H]2O[C@H](C(Cl)(Cl)Cl)O[C@@H]2[C@H]1O
Ans: inactive

Q: So what was the verdict on CNCC(O)c1ccc(O)cc1 (stereo not given) in this test?
Ans: inactive

Q: What did the test return for N#Cc1cccc(C#N)c1 ?
Ans: inactive

Q: Hi team, can someone confirm the assay call for CCOc1ccc(N)cc1 ?
Ans: active
